I'd appreciate it if you could supply logP (HCOOH) values for the items below.
experimentalProtocol: logP (HCOOH), physicochemical characterization
// return just the number, without any unit appended

Q: Any idea what its logP (HCOOH) is? The molecule is O=C(Nc1c(NC2CC2)ncnc1-c1ccc(F)cc1)c1ccnn1-c1ccc(Cl)cc1 [9-2]
Ans: 2.02

Q: Field entry: CCOc1ncccc1C(=O)Nc1c(NC2CC2)ncnc1-c1ccc(C#N)cc1 [1-160]
Ans: 1.80

Q: Field entry: Cc1ncccc1C(=O)Nc1c(NC2CC2)ncnc1-c1ccc(F)cc1 [1-1]
Ans: 0.71

Q: Field entry: CCc1ncccc1C(=O)Nc1c(NC2CC2)nc(C)nc1-c1ccc(F)cc1F [1-278]
Ans: 1

Q: Field entry: CCc1ncccc1C(=O)Nc1c(NC2CC2)ncnc1-c1ccc(F)cc1C [1-180]
Ans: 1.10

Q: Field entry: CCc1ncccc1C(=O)Nc1c(NC2CC2)ncnc1-c1ccc(Cl)cc1C [1-188]
Ans: 1.40

Q: Field entry: O=C(Nc1c(NC2CC2)ncnc1-c1ccc(Cl)cc1)c1ccnn1-c1ccccc1Cl [9-4]
Ans: 2.05

Q: Field entry: CCc1ncccc1C(=O)Nc1c(NC2CC2)nc(C)nc1-c1ccccc1 [1-275]
Ans: 0.76

Q: Field entry: CCCc1ncccc1C(=O)Nc1c(NC2CC2)ncnc1-c1ccc(Cn2nc(C(F)(F)F)nc2C(F)(F)F)cc1 [1-264]
Ans: 1.9

Q: Field entry: O=C(Nc1c(NC2CC2)ncnc1-c1ccc(Cl)cc1)c1c(F)cccc1Cl [1-263]
Ans: 2.20

Q: Field entry: O=C(Nc1c(NC2CC2)ncnc1-c1ccc(F)cc1)c1ccnn1-c1ccc(F)cc1 [9-1]
Ans: 1.70

Q: Field entry: CCc1ncccc1C(=O)Nc1c(NC2CC2)ncnc1-c1ccccc1C [1-182]
Ans: 0.94

Q: Field entry: O=C(Nc1c(NC2CC2)ncnc1-c1ccc(F)cc1)c1ccnn1-c1ccccc1Cl [9-3]
Ans: 1.76

Q: Field entry: CCc1ncccc1C(=O)Nc1c(NC2CC2)ncnc1-c1ccc(C#N)cc1 [1-133]
Ans: 1.10

Q: Field entry: CCc1ncccc1C(=O)Nc1c(Br)ncnc1NC1CC1 [3-3]
Ans: 0.84

Q: Field entry: CCc1ncccc1C(=O)Nc1c(NC2CC2)ncnc1-c1ccc(SC(F)(F)F)cc1 [1-114]
Ans: 1.4

Q: Field entry: O=C(Nc1c(NC2CC2)ncnc1-c1ccccc1)c1cccnc1 [1-128]
Ans: 0.63

Q: Field entry: CCc1ncccc1C(=O)Nc1c(NC2CC2)nc(C)nc1-c1ccc(F)cc1 [1-276]
Ans: 0.88

Q: Field entry: CCc1ncccc1C(=O)Nc1c(NC2CC2)ncnc1-c1ccc(F)cc1Cl [1-139]
Ans: 0.79
